B1: PRKX (parent)
chain: KLLVVDRTRRLGNMKNGANDVKHH

variants of: B1; assay: protein stability index of a GFP-peptide fusion (GPS, HEK-293T) (PSI 1-6); higher = more stable; conditions: c terminus: a fixed tail appended;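 also: lentivirally expressed fusions sorted by FACS into six bins by GFP to DsRed ratio, PSI derived from sequencing read proportions per bin multiplied by bin number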
Below: a set of entries, each annotated with reported protein stability index.
Enter a number only.

Consider the following illustrative entries.
T8C :: 2.98
N13T :: 3.09
R9M :: 2.99
T8A :: 3.03
G12S :: 3.02

Give the measured protein stability index of A18R .
2.97

Give the measured protein stability index of T8V .
3

Give the measured protein stability index of G17N .
3.08
